Target: human Adrenergic, Alpha 2c Receptor (Adra2C), ADRA2C (gene 152) (UniProt P18825)
Sequence (P18825 whole entry, looked up): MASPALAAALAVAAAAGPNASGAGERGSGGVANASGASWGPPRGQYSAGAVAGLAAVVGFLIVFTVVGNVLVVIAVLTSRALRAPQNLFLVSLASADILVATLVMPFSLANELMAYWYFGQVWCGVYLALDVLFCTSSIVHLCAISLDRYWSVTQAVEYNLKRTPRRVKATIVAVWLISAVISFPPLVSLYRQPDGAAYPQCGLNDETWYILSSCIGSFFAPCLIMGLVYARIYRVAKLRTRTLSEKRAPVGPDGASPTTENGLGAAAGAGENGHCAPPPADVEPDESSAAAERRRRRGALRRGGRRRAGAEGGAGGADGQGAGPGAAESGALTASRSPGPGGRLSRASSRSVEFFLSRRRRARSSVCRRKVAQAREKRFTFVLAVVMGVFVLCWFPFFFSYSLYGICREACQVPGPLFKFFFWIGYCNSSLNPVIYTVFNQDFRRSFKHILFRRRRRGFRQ
Experiment: NVS_GPCR_hAdra2C: NovaScreen (NVS) G Protein-Coupled Receptor Assay for human Adrenergic, Alpha 2c Receptor (Adra2C) (AID 2283259)
Results filed as inconclusive are left out. The source made the active and inactive calls. How the source made its calls: active means hit-call score of the fitted dose curve at least 0.9, where 1 is the maximum; inconclusive means response in the unintended direction; inactive means score below 0.9.
Please reply with one of these outcomes: true for active, false for inactive

NC(=O)Cn1c(=O)cc(CCN2CCN(c3nccc4sccc34)CC2)c2ccc(F)cc21 : true
CN1CCN(Cc2cc(-c3ccc4[nH]c(=O)oc4c3)co2)[C@@H](c2ccc(F)cc2)C1 : true
COc1cc(S(=O)(=O)O)c(C)cc1N=Nc1c(O)ccc2cc(S(=O)(=O)O)ccc12 : true

For the next question, use this compound.
Tell me the recorded outcome of this test for "CNC(=O)[C@H]1O[C@@H](n2cnc3c(NCc4cc(Cl)ccc4OCc4cc(C)no4)ncnc32)[C@H](O)[C@@H]1N" . false

====

Test: APR_HepG2_P-H2AX_24hr: Apredica 24-hour HepG2 Assay for H2AX Phosphorylation (AID 2282920)
Settings: high-content imaging, actives raise or lower the signal
The source made the active and inactive calls. The calls were made as follows: active = hit-call score of the fitted dose curve at least 0.9, where 1 is the maximum; inactive = score below 0.9.
Choose one outcome from this list and give only that: Yes for active, No for inactive

Solved cases (5 shown):
Cc1cccc([N+](=O)[O-])c1C : No
Cc1nc(-c2ccc3c(c2)CCN(CCC2CCC(NC(=O)/C=C/c4ccc(F)cc4)CC2)CC3)no1 (stereo not given) : No
CCOC(=O)C(C)(C)Oc1ccc(Cl)cc1 : No
CNC(=O)[C@H]1O[C@@H](n2cnc3c(NCc4cc(Cl)ccc4OCc4cc(C)no4)ncnc32)[C@H](O)[C@@H]1N : No
CCOc1ccc2c(c1)C(C)=CC(C)(C)N2 : Yes

What was the test verdict on "C[C@]12C=CC(=O)C=C1CC[C@@H]1[C@@H]2C(=O)C[C@@]2(C)[C@H]1CC[C@]2(O)C(=O)CO" ? No

# outcome recorded in this test, key = "Cc1ccc2ncccc2c1" No

Which outcome did this test record for the compound "Cc1cc(=O)[nH]c(=S)[nH]1" ? No

Look up the recorded call for "Cc1ccc(Cl)cc1" in this test. No

Recorded call for "CCNc1cccc(C)c1" ? No

Kindly provide the recorded test outcome for the following compound: "COc1ccc2c(c1)c(CC(=O)O)c(C)n2C(=O)c1ccc(Cl)cc1" No

Please let me know the test result on file for "C[Si]1(C)O[Si](C)(C)O[Si](C)(C)O[Si](C)(C)O1" . No

I'd appreciate the recorded outcome for "CC1=C(/C=C/C(C)=C/C=C/C(C)=C/CO)C(C)(C)CCC1" from this test. Yes

GET /call?item= "CCCc1cc(=O)[nH]c(=S)[nH]1" returns the recorded outcome of this test. No

====

Read-out: 3-Hydroxy-3-Methylglutaryl-CoA Synthase 2 (HMGCS2), HMGCS2 (gene 3158)
Assay: LTEA_HepaRG_HMGCS2: Life Technologies and Expression Analysis (LTEA) Assay for 3-Hydroxy-3-Methylglutaryl-CoA Synthase 2 (HMGCS2) using HepaRG (AID 2283504)
Settings: mRNA level, 48 h; actives raise or lower the signal
Activity calls are given as the source filed them. How the source made its calls: active means hit-call score of the fitted dose curve at least 0.9, where 1 is the maximum; inactive means score below 0.9.
Field 'call' accepts 1 (yes) for active, 0 (no) for inactive

Would you please look over these solved cases?
CN[C@H]1CC[C@@H](c2ccc(Cl)c(Cl)c2)c2ccc(S(N)(=O)=O)cc21 : 1 (yes)
Nc1ccc2c(c1)C(=O)c1ccccc1C2=O : 1 (yes)
CC(=O)OC/C=C(\C)CCC=C(C)C : 0 (no)
CCCc1cc(=O)[nH]c(=S)[nH]1 : 0 (no)
Nc1nc(N)c2nc(CNc3ccc(C(=O)N[C@@H](CCC(=O)O)C(=O)O)cc3)cnc2n1 : 0 (no)

// next entry
Assay outcome for "COc1ccc2c(c1)c(CC(=O)O)c(C)n2C(=O)c1ccc(Cl)cc1" : what was it? 0 (no)

All figures here come from PubChem BioAssay (EPA / NIEHS).
